Top: recorded values
System: T1, human G-protein-coupled receptor family C group 5 member D (GPRC5D) (human, UniProt Q9NZD1 1-345)
T1 construct: whole, on cells; also called human GPRC5D protein
T1 sequence (Q9NZD1 whole entry): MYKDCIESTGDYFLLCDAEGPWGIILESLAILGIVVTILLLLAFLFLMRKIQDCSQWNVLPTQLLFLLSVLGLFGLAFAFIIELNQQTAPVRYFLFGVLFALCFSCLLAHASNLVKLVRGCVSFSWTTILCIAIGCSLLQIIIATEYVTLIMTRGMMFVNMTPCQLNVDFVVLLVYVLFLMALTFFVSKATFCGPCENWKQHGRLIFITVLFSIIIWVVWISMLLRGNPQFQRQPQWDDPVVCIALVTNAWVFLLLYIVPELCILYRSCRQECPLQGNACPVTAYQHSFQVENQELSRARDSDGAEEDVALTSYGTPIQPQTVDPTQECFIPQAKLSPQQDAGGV
Protocol Summary: FACS, CHO-K1/GPRC5D
// print number alone

Use the examples below as a reference point.
34-H2L1 (antibody, V domains shown, humanized 34D3H1, VH v2 x VL v1) VH: EVQLVESGGGLVKPGGSLRLSCAASGFTFSSYGMSWVRQTPGKGLEWVATISSGGSYTYYPDSVKGRFTISRDNAKNSLYLQMSSLRAEDTAVYYCARQGGDAMDYWGQGTLVTVSS VL: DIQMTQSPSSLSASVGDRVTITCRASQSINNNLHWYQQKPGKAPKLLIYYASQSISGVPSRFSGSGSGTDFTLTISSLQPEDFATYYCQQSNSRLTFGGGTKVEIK: 187000
34-H2L3 (antibody, V domains shown, humanized 34D3H1, VH v2 x VL v3) VH: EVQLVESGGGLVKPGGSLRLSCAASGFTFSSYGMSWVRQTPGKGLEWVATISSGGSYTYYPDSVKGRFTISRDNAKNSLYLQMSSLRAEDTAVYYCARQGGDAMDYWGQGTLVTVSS VL: DIQLTQSPSSLSASVGDRVTITCRASQSINNNLHWYQQKPGKSPKLLIYYASQSISGIPSRFSGSGSGTDFTLTISSVQPEDFATYFCQQSNSRLTFGGGTKLEIK: 186000
34-XI (antibody, V domains shown, also called 34D3H1 (chimeric)) VH: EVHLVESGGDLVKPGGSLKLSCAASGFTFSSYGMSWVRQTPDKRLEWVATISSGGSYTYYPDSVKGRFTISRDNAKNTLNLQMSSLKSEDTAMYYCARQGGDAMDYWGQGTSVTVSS VL: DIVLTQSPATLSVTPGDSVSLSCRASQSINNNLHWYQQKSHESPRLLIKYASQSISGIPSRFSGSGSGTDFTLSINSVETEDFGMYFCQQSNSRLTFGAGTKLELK: 192000
34-H3L3 (antibody, V domains shown, humanized 34D3H1, VH v3 x VL v3) VH: EVHLVESGGGLVKPGGSLRLSCAASGFTFSSYGMSWVRQTPGKRLEWVATISSGGSYTYYPDSVKGRFTISRDNAKNSLNLQMSSLRAEDTAVYYCARQGGDAMDYWGQGTLVTVSS VL: DIQLTQSPSSLSASVGDRVTITCRASQSINNNLHWYQQKPGKSPKLLIYYASQSISGIPSRFSGSGSGTDFTLTISSVQPEDFATYFCQQSNSRLTFGGGTKLEIK: 193000
34-H2L2 (antibody, V domains shown, humanized 34D3H1, VH v2 x VL v2) VH: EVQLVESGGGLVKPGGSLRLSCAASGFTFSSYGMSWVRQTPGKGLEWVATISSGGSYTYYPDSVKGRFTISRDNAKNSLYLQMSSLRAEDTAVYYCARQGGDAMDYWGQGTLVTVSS VL: DIQMTQSPSSLSASVGDRVTITCRASQSINNNLHWYQQKPGKAPKLLIYYASQSISGIPSRFSGSGSGTDFTLTISSVQPEDFATYFCQQSNSRLTFGGGTKVEIK: 179000

*Q* What measured Top goes with 34-H3L2 (antibody, V domains shown, humanized 34D3H1, VH v3 x VL v2) VH: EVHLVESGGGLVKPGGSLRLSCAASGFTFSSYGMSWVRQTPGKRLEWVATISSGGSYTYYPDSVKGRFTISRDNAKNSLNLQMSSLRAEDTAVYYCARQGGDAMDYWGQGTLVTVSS VL: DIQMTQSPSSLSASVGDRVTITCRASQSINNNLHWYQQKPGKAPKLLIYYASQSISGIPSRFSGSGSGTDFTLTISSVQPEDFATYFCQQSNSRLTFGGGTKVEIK ?
*A* 180000

*Q* What measured Top goes with 34-H1L3 (antibody, V domains shown, humanized 34D3H1, VH v1 x VL v3) VH: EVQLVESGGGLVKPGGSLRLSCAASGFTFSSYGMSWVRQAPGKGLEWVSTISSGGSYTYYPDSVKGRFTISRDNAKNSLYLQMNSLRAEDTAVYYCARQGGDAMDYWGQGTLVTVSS VL: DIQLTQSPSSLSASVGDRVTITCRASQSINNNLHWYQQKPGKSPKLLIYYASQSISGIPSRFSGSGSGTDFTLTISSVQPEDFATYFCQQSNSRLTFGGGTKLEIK ?
*A* 186000

Values from patent US12281162
